Target: Cholecystokinin receptor type A (Cavia porcellus) (UniProt Q63931)
Sequence (whole entry): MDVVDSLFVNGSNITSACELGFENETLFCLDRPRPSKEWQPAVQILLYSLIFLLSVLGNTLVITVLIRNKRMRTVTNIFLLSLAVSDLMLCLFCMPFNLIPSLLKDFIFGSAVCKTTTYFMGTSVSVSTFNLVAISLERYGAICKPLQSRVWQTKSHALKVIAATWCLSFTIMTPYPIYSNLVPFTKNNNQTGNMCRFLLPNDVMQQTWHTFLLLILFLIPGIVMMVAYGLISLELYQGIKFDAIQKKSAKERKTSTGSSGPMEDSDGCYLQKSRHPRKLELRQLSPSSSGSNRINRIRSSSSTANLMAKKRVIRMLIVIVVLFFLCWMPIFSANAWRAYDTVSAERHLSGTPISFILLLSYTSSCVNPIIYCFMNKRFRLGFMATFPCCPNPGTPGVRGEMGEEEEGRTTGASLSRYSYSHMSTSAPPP
Experiment: Functional activity as percent maximal stimulation of phosphatidylinositol hydrolysis in guinea pig pancreatic acini(CCK-A receptors) relative to CCK-8
Numbered stars: 1 amine (or outer) side, 2 acyl side, 3 side chain; on linkers, the order of the positions; unused ones are H or OH. Square brackets hold non-standard residues; d marks the D form. Side chains are listed from the residue outwards. Peptide text beside a SMILES is read from it. * marks the point of attachment. NMeW = CN[C@@H](Cc1c[nH]c2ccccc12)C(=O)O; NMeF = CN[C@@H](Cc1ccccc1)C(=O)O; NMeD = CN[C@@H](CC(=O)O)C(=O)O; NH(2-Me-phenyl) = Cc1ccccc1N*; Boc = CC(C)(C)OC(=O)*; CO = O=C([*:1])[*:2]
Property: Stimulation; scope: individual compounds

COMPOUND | ASSAYED SYSTEM | READOUT KIND | RESULT VALUE
Cc1ccccc1NC(=O)NCCCC[C@H](NC(=O)[C@H](Cc1c[nH]c2ccccc12)NC(=O)OC(C)(C)C)C(=O)N(C)[C@@H](CC(=O)O)C(=O)N(C)[C@@H](Cc1ccccc1)C(N)=O (Boc-WK([CO-NH(2-Me-phenyl)])[NMeD][NMeF]-NH2) | Cholecystokinin receptor type A (Cavia porcellus) (UniProt Q63931) | Stimulation | 93%

Value lookup for Stimulation; key = Cc1ccccc1NC(=O)NCCCC[C@H](NC(=O)[C@H](Cc1c[nH]c2ccccc12)NC(=O)OC(C)(C)C)C(=O)N(C)[C@@H](CC(=O)O)C(=O)N[C@@H](Cc1ccccc1)C(N)=O (stereo in doubt; 4)
101%

Value lookup for Stimulation; key = CN[C@@H](Cc1c[nH]c2ccccc12)C(=O)N[C@@H](CCCCNC(=O)Nc1ccccc1C)C(=O)N(C)[C@@H](CC(=O)O)C(=O)N[C@@H](Cc1ccccc1)C(N)=O (H-[NMeW]K([CO-NH(2-Me-phenyl)])[NMeD]F-NH2)
97%

Value lookup for Stimulation; key = CNC(=O)[C@H](Cc1ccccc1)NC(=O)[C@H](CC(=O)O)NC(=O)[C@H](CCCCNC(=O)Nc1ccccc1C)NC(=O)[C@H](Cc1c[nH]c2ccccc12)NC(=O)OC(C)(C)C (Boc-WK([CO-NH(2-Me-phenyl)])DF-NHMe)
9%

Measured values drawn from ChEMBL document CHEMBL1127624 for this set.
